Test system: BT-549 breast
assay.name: NCI-60 one-dose screen, 48 h
measurement.context: 10 µM unless noted
This is part of a sample that, as a whole, favours compounds with a hit. Of some 83,000 tested, about 20% had one in any assay. Calls of active or inactive are those of the source. The calls were made as follows: active = growth percent below 10; inactive = the rest.
Entry note: the call must match one of Yes = active, No = inactive

Oc1cccc2ccc(-c3nnc(SCc4ccc(O)c5ncccc45)n3-c3ccccc3)nc12 No
CC1=NC2=NN3C(=NN2C(c2ccccc2)=C1)N=NC(c1ccc(Br)cc1)=C3c1ccc(Br)cc1 No
O=C(CN1CCN(c2cc(=O)n(-c3ccccc3)c3ccccc23)CC1)Nc1ccc(F)cc1 No

Recorded call for `CC(=O)O[C@@H]1C(=O)N(c2cnccn2)[C@H]1c1ccccc1[N+](=O)[O-]` ? Yes

Short answer needed: outcome of this test for `CNC(=O)c1cc(Oc2ccc3nc(NC(=O)c4ccc(N5CCOCC5)c(C(F)(F)F)c4)sc3c2)ccn1` ? No

How was `Cc1ccc(-n2cc(/C=C/C(=O)c3ccc(O)cc3)c(-c3ccc(S(C)(=O)=O)cc3)n2)cc1` classified in this test? No

Each molecule tested received a call. Report the one for `Cc1cc2ncc(-c3cc4ccccc4c(N4CCN(C)CC4)n3)nc2cc1C` . No

What was the test verdict on `COc1ccc(-c2nc3cc(Cl)c(Cl)cc3n2CC(=O)N=Nc2c(O)[nH]c3ccc(OC)cc23)cc1` ? Yes

Hello, I am checking results. What call was entered for `O=C(NNc1nc2cc(F)cc(F)c2n2cccc12)c1cnccn1` ? No
